Molecular target: ATPase family AAA domain-containing protein 2 (Homo sapiens)
Sequence (Q6PL18 whole entry): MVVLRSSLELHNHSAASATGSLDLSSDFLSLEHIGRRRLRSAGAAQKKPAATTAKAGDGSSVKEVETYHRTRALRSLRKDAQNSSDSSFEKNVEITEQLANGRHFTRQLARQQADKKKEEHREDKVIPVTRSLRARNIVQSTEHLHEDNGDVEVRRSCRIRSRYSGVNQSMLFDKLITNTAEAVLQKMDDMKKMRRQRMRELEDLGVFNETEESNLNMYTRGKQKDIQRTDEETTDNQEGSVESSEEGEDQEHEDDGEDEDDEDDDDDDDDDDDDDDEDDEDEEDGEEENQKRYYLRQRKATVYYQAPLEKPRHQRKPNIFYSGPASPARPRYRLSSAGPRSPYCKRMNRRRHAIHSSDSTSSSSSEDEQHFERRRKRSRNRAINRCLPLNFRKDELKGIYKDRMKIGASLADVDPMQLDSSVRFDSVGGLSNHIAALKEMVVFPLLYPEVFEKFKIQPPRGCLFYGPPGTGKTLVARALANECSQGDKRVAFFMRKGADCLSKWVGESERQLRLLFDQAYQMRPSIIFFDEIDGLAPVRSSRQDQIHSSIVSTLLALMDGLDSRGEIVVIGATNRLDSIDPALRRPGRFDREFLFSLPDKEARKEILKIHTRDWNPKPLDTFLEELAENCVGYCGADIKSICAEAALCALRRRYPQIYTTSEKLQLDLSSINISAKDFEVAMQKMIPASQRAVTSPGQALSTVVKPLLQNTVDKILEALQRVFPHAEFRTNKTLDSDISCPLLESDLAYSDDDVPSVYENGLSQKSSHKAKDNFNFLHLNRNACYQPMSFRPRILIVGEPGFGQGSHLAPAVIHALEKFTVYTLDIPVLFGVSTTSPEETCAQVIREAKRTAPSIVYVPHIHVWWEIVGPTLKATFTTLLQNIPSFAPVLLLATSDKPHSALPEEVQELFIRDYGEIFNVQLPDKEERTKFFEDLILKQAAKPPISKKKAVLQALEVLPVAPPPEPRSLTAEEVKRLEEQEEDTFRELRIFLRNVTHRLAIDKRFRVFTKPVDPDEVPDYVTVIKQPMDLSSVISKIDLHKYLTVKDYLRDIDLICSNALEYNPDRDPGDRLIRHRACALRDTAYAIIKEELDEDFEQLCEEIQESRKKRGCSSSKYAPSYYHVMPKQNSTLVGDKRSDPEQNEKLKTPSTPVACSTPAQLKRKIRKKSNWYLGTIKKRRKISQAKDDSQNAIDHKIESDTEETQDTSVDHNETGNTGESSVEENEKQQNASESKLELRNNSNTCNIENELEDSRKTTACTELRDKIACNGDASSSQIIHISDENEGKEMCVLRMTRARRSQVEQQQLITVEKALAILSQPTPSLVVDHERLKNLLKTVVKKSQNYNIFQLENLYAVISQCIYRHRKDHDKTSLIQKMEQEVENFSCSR
Test: Displacement of SGRG-K(Ac)-GG-K(Ac)-GLG-K(Ac)-GGAKRHRKV-biotin) from His6/FLAG-tagged TEV fused ATAD2 bromodomain (981 to 1121 residues) (unknown origin) expressed in Escherichia coli BL21(DE3) cells after 30 mins by TR-FRET assay
OBSERVATION_TYPE: IC50 (µM)
Form entry: value (µM) — number only.

According to the records, this compound `CCC(=O)Nc1ccc(Br)c(S(=O)(=O)N2CCCCC2)c1` displays IC50 of 15.8

According to the records, this compound CSCCC1NC(=O)N(CC(=O)Nc2ccc(Cl)c(S(=O)(=O)N3CCOCC3)c2)C1=O (stereo not given) displays IC50 of 10

According to the records, this compound Cc1ccc(C2(C)NC(=O)N(CC(=O)Nc3ccc(C)c(S(=O)(=O)N4CCCCC4)c3)C2=O)cc1 (stereo not given) displays IC50 of 10

According to the records, this compound `Cc1ccccc1C(=O)NCC(=O)Nc1ccc(C)c(S(=O)(=O)N2CCCCCC2)c1` displays IC50 of 12.6

====

Biological target: Bromodomain-containing protein 9 (Homo sapiens)
Sequence (Q9H8M2 whole entry): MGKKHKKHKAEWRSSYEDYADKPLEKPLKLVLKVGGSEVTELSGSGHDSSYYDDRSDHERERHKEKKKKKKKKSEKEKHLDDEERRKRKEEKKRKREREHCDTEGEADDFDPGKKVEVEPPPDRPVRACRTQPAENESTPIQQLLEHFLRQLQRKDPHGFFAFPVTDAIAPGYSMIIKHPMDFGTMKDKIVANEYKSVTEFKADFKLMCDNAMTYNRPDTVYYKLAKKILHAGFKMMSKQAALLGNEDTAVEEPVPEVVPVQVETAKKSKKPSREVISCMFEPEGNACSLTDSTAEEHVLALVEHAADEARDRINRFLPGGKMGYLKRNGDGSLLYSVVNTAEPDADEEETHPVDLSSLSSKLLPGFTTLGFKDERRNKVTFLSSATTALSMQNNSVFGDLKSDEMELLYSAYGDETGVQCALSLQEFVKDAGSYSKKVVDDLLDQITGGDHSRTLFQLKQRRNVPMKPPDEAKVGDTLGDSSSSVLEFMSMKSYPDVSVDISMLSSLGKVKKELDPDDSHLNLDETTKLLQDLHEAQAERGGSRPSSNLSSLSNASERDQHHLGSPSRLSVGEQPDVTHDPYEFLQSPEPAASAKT
Test: Inhibition of BRD9 (unknown origin) by TR-FRET assay
pIC50: −log10 of the molar value.
OBSERVATION_TYPE: pIC50

According to the records, this molecule CC1(C2CC2)NC(=O)N(CC(=O)Nc2ccc(Br)c(S(=O)(=O)N3CCCCC3)c2)C1=O (racemic) displays pIC50 of < 4.30

====

Target: ATPase family AAA domain-containing protein 2 (Homo sapiens)
Sequence (Q6PL18 whole entry): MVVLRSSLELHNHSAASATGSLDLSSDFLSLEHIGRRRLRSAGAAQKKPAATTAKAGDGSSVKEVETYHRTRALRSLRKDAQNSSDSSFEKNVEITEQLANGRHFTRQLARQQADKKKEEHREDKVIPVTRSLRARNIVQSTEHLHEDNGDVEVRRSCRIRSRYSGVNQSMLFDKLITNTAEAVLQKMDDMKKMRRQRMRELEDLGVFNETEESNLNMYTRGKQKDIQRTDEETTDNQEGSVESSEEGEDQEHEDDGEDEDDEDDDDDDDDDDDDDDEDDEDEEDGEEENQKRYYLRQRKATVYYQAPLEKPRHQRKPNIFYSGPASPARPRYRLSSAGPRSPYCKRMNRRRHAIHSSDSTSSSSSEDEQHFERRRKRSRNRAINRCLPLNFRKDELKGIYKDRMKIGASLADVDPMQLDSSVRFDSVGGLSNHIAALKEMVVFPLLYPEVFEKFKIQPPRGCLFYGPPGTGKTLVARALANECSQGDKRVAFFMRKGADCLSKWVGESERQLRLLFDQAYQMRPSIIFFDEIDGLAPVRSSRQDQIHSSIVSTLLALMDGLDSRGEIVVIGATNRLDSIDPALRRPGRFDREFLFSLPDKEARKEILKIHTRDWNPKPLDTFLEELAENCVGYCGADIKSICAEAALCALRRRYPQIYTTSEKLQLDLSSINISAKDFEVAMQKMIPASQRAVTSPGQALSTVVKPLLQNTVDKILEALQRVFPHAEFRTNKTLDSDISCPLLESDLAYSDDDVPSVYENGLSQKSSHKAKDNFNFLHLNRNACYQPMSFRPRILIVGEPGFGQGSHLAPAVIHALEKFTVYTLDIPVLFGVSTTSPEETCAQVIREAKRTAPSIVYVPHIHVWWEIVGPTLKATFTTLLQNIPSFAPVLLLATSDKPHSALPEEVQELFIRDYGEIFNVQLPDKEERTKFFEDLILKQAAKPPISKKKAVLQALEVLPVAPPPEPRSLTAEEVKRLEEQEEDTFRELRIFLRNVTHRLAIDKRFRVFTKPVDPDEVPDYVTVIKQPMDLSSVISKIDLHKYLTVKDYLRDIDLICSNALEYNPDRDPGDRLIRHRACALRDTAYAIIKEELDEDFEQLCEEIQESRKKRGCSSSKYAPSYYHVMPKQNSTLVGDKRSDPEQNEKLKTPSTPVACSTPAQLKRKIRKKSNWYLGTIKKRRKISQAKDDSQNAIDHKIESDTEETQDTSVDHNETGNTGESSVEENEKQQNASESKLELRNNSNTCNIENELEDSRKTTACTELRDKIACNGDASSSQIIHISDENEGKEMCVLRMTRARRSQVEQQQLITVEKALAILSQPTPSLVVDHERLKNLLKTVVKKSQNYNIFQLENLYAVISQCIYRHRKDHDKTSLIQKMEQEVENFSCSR
Test: Inhibition of ATAD2 bromodomain in human HUT78 chromatin lysate after 2 hrs by bromosphere competition binding assay
Can you tell me IC50 for the items I'm about to list?
Form entry: value (µM) — number only.

According to the records, this molecule `Cc1[nH]c(=O)c(C#N)c(C)c1CCC(=O)Nc1ccc(Cl)c(S(=O)(=O)N2CCCCC2)c1` displays IC50 of 15.8

According to the records, this molecule CC1(C2CC2)NC(=O)N(CC(=O)Nc2ccc(Cl)c(S(=O)(=O)N3CCCCC3)c2)C1=O (racemic) displays IC50 of 15.8

According to the records, this molecule `Cc1ccccc1C(=O)NCC(=O)Nc1ccc(C)c(S(=O)(=O)N2CCCCCC2)c1` displays IC50 of 39.8

According to the records, this molecule CC1(C2CC2)NC(=O)N(CC(=O)Nc2ccc(Br)c(S(=O)(=O)N3CCCCC3)c2)C1=O (racemic) displays IC50 of 3.98
